- System: SK-OV-3 ovarian
- ASSAY OVERVIEW: NCI tumour cell line growth inhibition, 48 h
We begin with a simple list: items and their reported TGI.

{"MOLECULE": "CC(C)C(=O)c1c(C(F)(F)F)n([O-])c2ccccc2[n+]1=O", "TGI": "> 100 µM"}
{"MOLECULE": "Cc1ccc(C(=O)Nc2ncn(C3CC(O)C(CO)O3)c(=O)n2)cc1 (stereo unspecified)", "TGI": "> 100 µM"}
{"MOLECULE": "O=C1NC(=NCCc2ccccn2)S/C1=C\\c1ccc2ncccc2c1", "TGI": "> 25 µM"}
{"MOLECULE": "CN(/N=C\\c1ccnc2ccccc12)c1ccccc1", "TGI": "66 µM"}
{"MOLECULE": "CC(C)=NNC(=S)NC12CC3CC(CC(C3)C1)C2", "TGI": "> 100 µM"}
{"MOLECULE": "O=C(CN=C(CN(c1ccccc1)c1ccccc1)Oc1ccc(Cl)cc1Cl)n1ccnc1", "TGI": "> 100 µM"}
{"MOLECULE": "Cn1c(-c2c(N)n(Cc3ccc(F)cc3)c3nc(C#N)c(C#N)nc23)nc2ccccc21", "TGI": "33.8 µM"}
{"MOLECULE": "COc1cc(CNc2cnc3ccc(N)cc3n2)cc(OC)c1OC", "TGI": "> 100 µM"}
{"MOLECULE": "CCCN(CCC)c1ccc(C=O)c(C)c1", "TGI": "> 100 µM"}
{"MOLECULE": "CC(=O)NNc1nc(C)c(C(=O)/C=C/c2ccc(Cl)c(Cl)c2)s1", "TGI": "> 100 µM"}
{"MOLECULE": "C=CC1(c2ccc3ccccc3c2)OCC(CC)O1 (stereo unspecified)", "TGI": "> 100 µM"}
